tested on: Mtb; experiment: microbe, parasite or virus in culture; format: cell-based; settings: Mycobacterium tuberculosis; 6 days, optical density; unit given as M; read-out: growth inhibition EC50
pEC50: −log10 of the molar value.
experimental.readout: pEC50

Use these answered entries as a reference point.
{"columns": ["compound", "experimental.target", "pEC50"],
 "data": [
  ["CN(C)CCCN1C(=O)c2cccc3c(Br)ccc(c23)C1=O [HC104A]", "Mtb", "< 4.10"],
  ["C[C@@H]1CC(C)(C)C[C@]2(C1)NC(=O)NC2=O (racemic) [HC102A]", "Mtb", "< 4.10"],
  ["O=C(Nc1ccno1)Nc1ccc(Cl)cc1Cl [HC106A]", "Mtb", "< 4.10"]
]}

Consider the record given below.
Ask: Read the entry CCCS(=O)(=O)N1CCN(Cc2ccc3c(c2)c2ccccc2n3CC)CC1 [HC105A] and write its reported pEC50.
Result: < 4.10
